Source of measurements: patent US20100227824A1

Target: T1, Mig (CXCL9) (UniProt Q07325 23-125)
T1 construct: Bought chemokine
T1 sequence (looked up): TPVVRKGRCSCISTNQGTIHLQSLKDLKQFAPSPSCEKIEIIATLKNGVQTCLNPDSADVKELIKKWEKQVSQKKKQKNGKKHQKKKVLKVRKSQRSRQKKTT
Experiment: micro-array, phage-presented peptide on printed CK
Listing of recorded Relative Fluorescence Units (RFU) by entry.

SYYDDVGL [Phage-Presented Peptide 27 (Ph-p27)] = > 15000 RFU

Notebook: DRYLNIVHAT [Phage-Presented Peptide 18 (Ph-p18)] , Relative Fluorescence Units (RFU) read as > 9000 RFU

Notebook: WVFGVHFCK [Phage-Presented Peptide 8.77 (Ph-p8.77)] , Relative Fluorescence Units (RFU) read as > 15000 RFU

Notebook: WVFGHGMCK [Phage-Presented Peptide 25 (Ph-p25)] , Relative Fluorescence Units (RFU) read as > 15000 RFU

Notebook: DYDYGAPC [Phage-Presented Peptide 30 (Ph-p30)] , Relative Fluorescence Units (RFU) read as > 15000 RFU

Notebook: DYDY [Phage-Presented Peptide 32 (Ph-p32)] , Relative Fluorescence Units (RFU) read as > 10000 RFU

Notebook: WVFGSGLCK [Phage-Presented Peptide 15 (Ph-p15)] , Relative Fluorescence Units (RFU) read as > 15000 RFU

Notebook: DYDYG [Phage-Presented Peptide 31 (Ph-p31)] , Relative Fluorescence Units (RFU) read as > 15000 RFU
